Target: T1, human C-C chemokine receptor 4 (CCR4) (human, UniProt P51679 1-360)
T1 construct: Expressed on stably transfected murine pre-B L1.2 cells (L1.2/CCR4, L1.2/huCCR4); also called huCCR4; MDC receptor CCR4
T1 sequence: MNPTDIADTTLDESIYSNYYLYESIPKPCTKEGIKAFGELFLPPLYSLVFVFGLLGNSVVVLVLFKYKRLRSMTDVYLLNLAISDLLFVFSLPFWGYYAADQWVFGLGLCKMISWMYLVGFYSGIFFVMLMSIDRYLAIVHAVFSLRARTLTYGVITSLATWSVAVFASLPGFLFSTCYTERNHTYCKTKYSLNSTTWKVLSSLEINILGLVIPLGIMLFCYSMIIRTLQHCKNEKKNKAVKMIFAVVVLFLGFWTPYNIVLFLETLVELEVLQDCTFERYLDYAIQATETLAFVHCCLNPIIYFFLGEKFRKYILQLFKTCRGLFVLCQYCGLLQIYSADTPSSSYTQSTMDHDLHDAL
Test: displacement of 0.5 nM MDC-SEAP from CCR4-transfected L1.2 cells by unlabeled chemokine
Measured Property: pIC50
Units for pIC50: none; it is -log10 of a concentration expressed in mol/L.

[[record]]
binder = "human mature Macrophage Derived Chemokine, MDC(1-69) (ligand, also called mature MDC; human mature MDC) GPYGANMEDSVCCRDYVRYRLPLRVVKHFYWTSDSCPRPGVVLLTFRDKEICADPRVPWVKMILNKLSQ"
measured = 9.19


Input line: Please indicate pIC50 recorded for TARC (Thymus and Activation-Regulated Chemokine) (ligand, The whole entry is named here) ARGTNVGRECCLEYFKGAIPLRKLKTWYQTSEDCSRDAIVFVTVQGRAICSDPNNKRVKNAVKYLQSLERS
Output line: 8.68
